system-name: T1, EsCas13d, nuclease-dead (Eubacterium siraeum, UniProt B0MS50, R295A;H300A;R849A;H854A)
T1 sequence: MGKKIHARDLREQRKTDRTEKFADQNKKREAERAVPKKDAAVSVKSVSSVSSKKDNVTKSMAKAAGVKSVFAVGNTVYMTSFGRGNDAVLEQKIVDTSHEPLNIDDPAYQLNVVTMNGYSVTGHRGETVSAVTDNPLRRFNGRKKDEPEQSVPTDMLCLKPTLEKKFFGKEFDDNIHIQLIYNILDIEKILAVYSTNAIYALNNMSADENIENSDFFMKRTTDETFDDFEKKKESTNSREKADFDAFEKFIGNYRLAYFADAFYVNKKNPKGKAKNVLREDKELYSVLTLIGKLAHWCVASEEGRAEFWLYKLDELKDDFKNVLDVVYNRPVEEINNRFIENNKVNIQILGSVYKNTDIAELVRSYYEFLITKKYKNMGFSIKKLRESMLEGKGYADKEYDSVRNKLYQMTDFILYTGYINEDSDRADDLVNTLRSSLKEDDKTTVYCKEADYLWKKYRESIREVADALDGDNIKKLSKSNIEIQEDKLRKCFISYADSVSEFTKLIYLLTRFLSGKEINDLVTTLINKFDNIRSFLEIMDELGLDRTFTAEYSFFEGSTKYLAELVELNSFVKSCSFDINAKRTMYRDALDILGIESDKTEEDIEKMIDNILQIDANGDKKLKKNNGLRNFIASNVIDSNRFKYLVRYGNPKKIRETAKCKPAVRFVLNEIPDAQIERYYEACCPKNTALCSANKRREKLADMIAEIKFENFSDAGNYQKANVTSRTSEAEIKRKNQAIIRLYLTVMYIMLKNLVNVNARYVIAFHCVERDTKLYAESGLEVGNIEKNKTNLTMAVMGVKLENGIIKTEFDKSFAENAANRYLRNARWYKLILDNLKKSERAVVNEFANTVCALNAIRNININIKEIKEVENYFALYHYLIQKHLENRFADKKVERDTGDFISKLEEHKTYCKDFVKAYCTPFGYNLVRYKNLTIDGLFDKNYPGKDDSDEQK
method-notes: crRNA (strand 1, pre-loaded); Mg2+; 40 mM Tris-HCl pH 7.5, 150 mM NaCl, 6 mM MgCl2, 1 mM DTT, 0.1% Tween-20, 0.2 mg/ml BSA; 25 C; 10 min per concentration, then washed
measurement-context: tags: His6-TwinStrep-SUMO cleaved; N-terminal SNAP kept (SNAP-Surface 488); label: 3' end held by stalled T7 RNA polymerase
readout-kind: Kd (nM)
Give the number; nM is assumed, so skip it.

What Kd value was documented for this binder, target 1 MT 5'PFS AAA 3'PFS UUA (mixed) RNA 1: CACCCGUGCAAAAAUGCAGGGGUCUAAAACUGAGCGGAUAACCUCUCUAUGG RNA 2: GGGAAUGGAUCCACAUCUACGAAUUCAAACCAUAGAGAGGUUAUCCGCUCAUUAAGAUCGGAAGAGCACACGU ?
10.1
